Reference for the values: the NIST ThermoML archive (doi:10.1021/je5009679)

// viscosity lookup, one value per entry
settings: 323.15 K; 101.33 kPa; Liquid; Concentric cylinders viscometry
Numbers after ± are expanded uncertainties.
Please state the value followed by its unit.

Please review the following examples before continuing.
| molecule | reported property | obs value |
| --- | --- | --- |
| CC(=O)[O-].CCCCn1cc[n+](C)c1 [1-butyl-3-methylimidazolium acetate] | viscosity | 81.88 ± 3.9 mPa·s |
| CCCC[n+]1ccn(C)c1.O=S(=O)([N-]S(=O)(=O)C(F)(F)F)C(F)(F)F | viscosity | 20.58 ± 0.96 mPa·s |

Data request, read-out viscosity, for CCn1cc[n+](C)c1.CO[PH](=O)[O-] [1-ethyl-3-methylimidazolium methyl phosphonate]
37.41 ± 1.8 mPa·s

Data request, read-out viscosity, for CCOP(=O)([O-])OCC.CCn1cc[n+](C)c1 [1-ethyl-3-methylimidazolium diethyl phosphate]
103.8 ± 5 mPa·s

----------
conditions: 353.15 K; 101.33 kPa; Liquid; Concentric cylinders viscometry
// viscosity lookup, one value per entry
A number alone suffices; assume mPa·s.

Please review the following examples before continuing.
| compound | viscosity [mPa·s] |
| --- | --- |
| CCn1cc[n+](C)c1.CO[PH](=O)[O-] [1-ethyl-3-methylimidazolium methyl phosphonate] | 14.71 |
| CCOP(=O)([O-])OCC.CCn1cc[n+](C)c1 [1-ethyl-3-methylimidazolium diethyl phosphate] | 31.86 |
| CCCC[n+]1ccn(C)c1.O=S(=O)([N-]S(=O)(=O)C(F)(F)F)C(F)(F)F | 9.562 |

Now, please, on to the next compound.
Data request, read-out viscosity, for CC(=O)[O-].CCCCn1cc[n+](C)c1 [1-butyl-3-methylimidazolium acetate]
23.51

----------
// mass density lookup, one value per entry
conditions: 363.15 K; 101.33 kPa; Liquid; Vibrating tube method
± gives the expanded uncertainty stated by the source.
Please state the value followed by its unit.

Please review the following examples before continuing.
| molecule | mass density |
| --- | --- |
| CC(=O)[O-].CCCCn1cc[n+](C)c1 [1-butyl-3-methylimidazolium acetate] | 1012 ± 1 kg/m3 |
| CCn1cc[n+](C)c1.CO[PH](=O)[O-] [1-ethyl-3-methylimidazolium methyl phosphonate] | 1153.8 ± 1.1 kg/m3 |
| CCOP(=O)([O-])OCC.CCn1cc[n+](C)c1 [1-ethyl-3-methylimidazolium diethyl phosphate] | 1101.5 ± 1 kg/m3 |

Now, please, on to the next molecule.
Data request, read-out mass density, for CCCC[n+]1ccn(C)c1.O=S(=O)([N-]S(=O)(=O)C(F)(F)F)C(F)(F)F
1375.6 ± 1.3 kg/m3

----------
details: 343.15 K; 101.33 kPa; Liquid; Vibrating tube method
reported property: mass density (kg/m3)
A number alone suffices; assume kg/m3.

Please review the following examples before continuing.
| molecule | mass density [kg/m3] |
| --- | --- |
| CCOP(=O)([O-])OCC.CCn1cc[n+](C)c1 [1-ethyl-3-methylimidazolium diethyl phosphate] | 1114.6 |
| CCn1cc[n+](C)c1.CO[PH](=O)[O-] [1-ethyl-3-methylimidazolium methyl phosphonate] | 1166.1 |
| CC(=O)[O-].CCCCn1cc[n+](C)c1 [1-butyl-3-methylimidazolium acetate] | 1023.7 |

Data request, read-out mass density, for CCCC[n+]1ccn(C)c1.O=S(=O)([N-]S(=O)(=O)C(F)(F)F)C(F)(F)F
1394
